assay.target: STE20-like serine/threonine-protein kinase (Homo sapiens); note: in the data inactive means no Kd found up to 30 µM
Sequence (Q9H2G2 whole entry): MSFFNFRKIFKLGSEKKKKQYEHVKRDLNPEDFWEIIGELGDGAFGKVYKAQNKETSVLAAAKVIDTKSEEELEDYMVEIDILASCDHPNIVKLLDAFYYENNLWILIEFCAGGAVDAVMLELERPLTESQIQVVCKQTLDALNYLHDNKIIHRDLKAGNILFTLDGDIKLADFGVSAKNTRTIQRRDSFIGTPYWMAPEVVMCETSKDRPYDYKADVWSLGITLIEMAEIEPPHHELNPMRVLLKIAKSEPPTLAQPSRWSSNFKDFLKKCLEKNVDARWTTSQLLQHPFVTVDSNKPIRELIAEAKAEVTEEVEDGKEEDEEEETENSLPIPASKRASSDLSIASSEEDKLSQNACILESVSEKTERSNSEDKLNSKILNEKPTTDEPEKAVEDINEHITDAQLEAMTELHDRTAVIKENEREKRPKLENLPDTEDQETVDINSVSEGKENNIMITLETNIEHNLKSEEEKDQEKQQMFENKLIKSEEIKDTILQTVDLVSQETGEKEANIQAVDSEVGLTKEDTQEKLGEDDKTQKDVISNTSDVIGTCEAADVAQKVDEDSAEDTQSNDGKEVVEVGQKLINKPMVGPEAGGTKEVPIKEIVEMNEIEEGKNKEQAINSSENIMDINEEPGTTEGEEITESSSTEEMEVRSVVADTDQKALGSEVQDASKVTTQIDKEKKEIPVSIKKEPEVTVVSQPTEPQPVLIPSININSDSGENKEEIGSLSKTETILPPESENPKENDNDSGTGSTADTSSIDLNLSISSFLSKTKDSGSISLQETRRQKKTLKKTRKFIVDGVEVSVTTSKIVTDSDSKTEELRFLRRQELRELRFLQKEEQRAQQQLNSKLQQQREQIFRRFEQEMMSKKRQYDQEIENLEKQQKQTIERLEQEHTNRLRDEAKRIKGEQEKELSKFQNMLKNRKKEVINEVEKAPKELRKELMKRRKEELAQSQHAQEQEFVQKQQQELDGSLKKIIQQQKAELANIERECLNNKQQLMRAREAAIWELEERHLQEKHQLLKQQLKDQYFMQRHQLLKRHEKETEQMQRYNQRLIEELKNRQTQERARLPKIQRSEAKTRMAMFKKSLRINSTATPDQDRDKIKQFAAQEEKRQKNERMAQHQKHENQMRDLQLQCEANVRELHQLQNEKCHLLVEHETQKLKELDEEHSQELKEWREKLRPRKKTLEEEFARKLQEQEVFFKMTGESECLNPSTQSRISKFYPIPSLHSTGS
Calls of active or inactive are those of the source.
Assign a class; possible classes are active, inactive

Below are worked cases with known answers.
> print(dat)
                                   compound  discrete.label
1  CNC(=O)c1ccc(C)c(-n2c(C)cc(OCc3ccc(F)cc3F)c(Br)c2=O)c1 [PH-797804]        inactive
2  COCCNCc1ccc(-c2cc3nccc(Oc4ccc(NC(=S)NC(=O)Cc5ccc(F)cc5)cc4F)c3s2)nc1 [GLESATINIB]        inactive
3  CN1CCC(CNc2ccc3ncc(-c4cccc(OC(F)(F)F)c4)n3n2)CC1 [SGI-1776]          active
4  C1=C/COCc2cc(ccc2OCCN2CCCC2)Nc2nccc(n2)-c2cccc(c2)COC/1 [PACRITINIB]        inactive

Shifting focus to the compound that follows.
[ask] Hi, do you know how Cn1ncc(Cl)c1-c1cc(C(=O)N[C@H](CN)Cc2cccc(F)c2)sc1Cl [AFURESERTIB] came out in this test?
[reply] inactive
